SYSTEM_NAME: SLTM (Homo sapiens, UniProt Q9NWH9)
Sequence (Q9NWH9 360-485): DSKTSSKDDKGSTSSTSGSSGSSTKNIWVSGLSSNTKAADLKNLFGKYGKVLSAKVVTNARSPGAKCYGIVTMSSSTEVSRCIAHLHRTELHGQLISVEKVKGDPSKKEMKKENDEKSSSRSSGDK
PROCEDURE_TEXT: protein domain microarray probed with biotinylated miRNA; Domain array: 20 mM Tris-HCl pH 7.4, 200 mM KCl, 0.2 mM EDTA, 0.05% NP40, 2 ug/ul heparin, overnight 4 C. ORF array: PBS pH 7.0 with RNase inhibitor, 100 ng RNA; high values mean tight binding
PROTOCOL_CONDITIONS: ssRNA
Binary classification by binding signal, with 100 fluorescence intensity as an inclusive lower bound for condition met; all other cases are condition not met.

{"ENTRY_SEQUENCE": "CAGUGCAAUGAUGAAAGGGCAU", "ANSWER_LABEL": "condition met"}
{"ENTRY_SEQUENCE": "UGAGGUAGUAGGUUGUAUAGUU", "ANSWER_LABEL": "condition not met"}
{"ENTRY_SEQUENCE": "UAGCUUAUCAGACUGAUGUUGA", "ANSWER_LABEL": "condition not met"}
{"ENTRY_SEQUENCE": "UGAGGUAGUAGGUUGUAUGGUU", "ANSWER_LABEL": "condition met"}
{"ENTRY_SEQUENCE": "UGAGGUAGUAGGUUGUGUGGUU", "ANSWER_LABEL": "condition met"}
